- assay system: Serotonin 3 (5-HT3) receptor (Rattus norvegicus, UniProt P35563+Q9JJ16)
- Sequence (P35563 whole entry): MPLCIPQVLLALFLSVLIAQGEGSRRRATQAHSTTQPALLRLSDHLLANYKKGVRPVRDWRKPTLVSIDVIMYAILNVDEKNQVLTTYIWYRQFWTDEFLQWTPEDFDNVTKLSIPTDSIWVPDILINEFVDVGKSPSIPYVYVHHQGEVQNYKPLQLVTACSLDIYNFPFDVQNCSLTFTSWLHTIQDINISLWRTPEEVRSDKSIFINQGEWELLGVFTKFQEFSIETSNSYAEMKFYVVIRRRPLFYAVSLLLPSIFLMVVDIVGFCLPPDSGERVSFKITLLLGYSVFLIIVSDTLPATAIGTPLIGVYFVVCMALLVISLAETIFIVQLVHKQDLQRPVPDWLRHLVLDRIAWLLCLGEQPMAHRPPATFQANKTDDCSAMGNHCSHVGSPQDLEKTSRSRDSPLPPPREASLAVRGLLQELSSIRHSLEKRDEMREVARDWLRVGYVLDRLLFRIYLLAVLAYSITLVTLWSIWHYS
- Sequence (Q9JJ16 whole entry): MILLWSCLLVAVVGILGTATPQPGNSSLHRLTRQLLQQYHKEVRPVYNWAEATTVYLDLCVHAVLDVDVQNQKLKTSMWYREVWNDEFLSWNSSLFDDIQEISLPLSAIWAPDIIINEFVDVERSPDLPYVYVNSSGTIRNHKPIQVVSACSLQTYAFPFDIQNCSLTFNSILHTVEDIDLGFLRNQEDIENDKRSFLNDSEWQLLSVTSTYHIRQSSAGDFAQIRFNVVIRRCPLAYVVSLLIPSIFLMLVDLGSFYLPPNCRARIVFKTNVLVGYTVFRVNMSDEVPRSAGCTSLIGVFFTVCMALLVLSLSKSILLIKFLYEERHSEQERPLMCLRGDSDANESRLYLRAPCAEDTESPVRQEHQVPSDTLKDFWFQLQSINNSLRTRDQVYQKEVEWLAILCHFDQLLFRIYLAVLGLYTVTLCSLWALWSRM
- protocol text: Displacement of [3H]Q-ICS-205-930 from 5-hydroxytryptamine 3 receptor recognition sites in rat brain membranes
- Format: cell membranes
Hi there, I'd appreciate the recorded IC50 for every entry that follows.
Dear colleague, please return just the value in nM, with no unit written.

GET /value?item= Cn1cc(C2=NCC3(CC4CCC(C3)N4Cc3ccccc3)O2)c2ccccc21 (stereo not drawn) &field=IC50 returns 174

GET /value?item= Cn1cc(C2=NCC3(CC4CCC(C3)N4)O2)c2ccccc21 (stereo not drawn) &field=IC50 returns 11.2

GET /value?item= Cc1cccc2c(C3=NCC4(CN5CCC4CC5)O3)cn(C)c12 (stereo not drawn) &field=IC50 returns 8.91

GET /value?item= Cn1cc(C2=NC[C@@]3(C[N@@]4CC[C@@H]3C4)O2)c2ccccc21 &field=IC50 returns 3.47

GET /value?item= Cn1cc(C2=NC[C@@]3(CN4CCC3CC4)O2)c2ccccc21 &field=IC50 returns 2.57

GET /value?item= CCn1cc(C2=NCC3(CN4CCC3CC4)O2)c2ccccc21 (stereo not drawn) &field=IC50 returns 13.5

GET /value?item= Cc1ccc2c(c1)c(C1=NCC3(CN4CCC3CC4)O1)cn2C (stereo not drawn) &field=IC50 returns 132

GET /value?item= Cn1cc(C2=NCC3(CN4CCC3CC4)O2)c2cc(F)ccc21 (stereo not drawn) &field=IC50 returns 14.8

Origin of values: ChEMBL document CHEMBL1126265
